# measured.on: human adenosine A1 receptor (Homo sapiens)
# Construct: expressed in transfected cells; host or cells: Chinese hamster ovary (CHO) cells containing CRE/SPAP/HYG reporter elements
# protocol.details: Reporter gene assay (CRE/SPAP) in CHO cells, agonist activity, adenosine A1
# Assay type: cell-based
# assay.setup: CHO cells stably transfected with human adenosine A1 receptor; inhibition of forskolin-stimulated SPAP production; potency relative to NECA=1
quantity: A1 Receptor, Reporter Gene Assay ECR (equipotent concentration ratio relative to NECA=1)

Example entries begin here.
Retrieve A1 Receptor, Reporter Gene Assay ECR (equipotent concentration ratio relative to NECA=1) measured for O[C@@H]1[C@H](O)[C@@H](CF)O[C@H]1n1cnc2c(NC3CCSCC3)ncnc21 and print it.
1.64

Retrieve A1 Receptor, Reporter Gene Assay ECR (equipotent concentration ratio relative to NECA=1) measured for CCCCOC(=O)N1CCC(Nc2nc(Cl)nc3c2ncn3[C@@H]2O[C@H](CF)[C@@H](O)[C@H]2O)CC1 and print it.
4.50

Retrieve A1 Receptor, Reporter Gene Assay ECR (equipotent concentration ratio relative to NECA=1) measured for O[C@@H]1[C@H](O)[C@@H](CF)O[C@H]1n1cnc2c(NC3CCOCC3)nc(Cl)nc21 and print it.
2.41

Retrieve A1 Receptor, Reporter Gene Assay ECR (equipotent concentration ratio relative to NECA=1) measured for Cc1nc(NC2CCOCC2)c2ncn([C@@H]3O[C@H](CF)[C@@H](O)[C@H]3O)c2n1 and print it.
11.8

Retrieve A1 Receptor, Reporter Gene Assay ECR (equipotent concentration ratio relative to NECA=1) measured for O[C@@H]1[C@H](O)[C@@H](CF)O[C@H]1n1cnc2c(Nc3ccc(Cl)cc3F)ncnc21 and print it.
2.05

I. O=S1(=O)CCC(Nc2nc(Cl)nc3c2ncn3[C@@H]2O[C@H](CF)[C@@H](O)[C@H]2O)CC1
II. CNS(=O)(=O)CCNc1ncnc2c1ncn2[C@@H]1O[C@H](CF)[C@H](O)[C@H]1O
Smaller A1 Receptor, Reporter Gene Assay ECR (equipotent concentration ratio relative to NECA=1) value? Options are I and II Please indicate the selected item by its label.
II
(II: 0.71, I: 9.16)

a. OCC(O)CNc1nc(Cl)nc2c1ncn2[C@@H]1O[C@H](CF)[C@@H](O)[C@H]1O (stereo partly shown)
b. CS(=O)(=O)N1CCC(Nc2nc(Cl)nc3c2ncn3[C@@H]2O[C@H](CF)[C@@H](O)[C@H]2O)CC1
c. O[C@@H]1[C@H](O)[C@@H](C(F)(F)F)O[C@H]1n1cnc2c(NC3CCOCC3)nc(Cl)nc21
d. CC(=O)N1CCC(Nc2nc(Cl)nc3c2ncn3[C@@H]2O[C@H](CF)[C@@H](O)[C@H]2O)CC1
Arrange these molecules by their A1 Receptor, Reporter Gene Assay ECR (equipotent concentration ratio relative to NECA=1), starting with the largest number. Answer by writing out the labels in the requested order.
c, d, b, a

###

# measured.on: human adenosine A1 receptor (Homo sapiens, UniProt P30542)
# Construct: expressed in transfected cells; host or cells: Chinese hamster ovary (CHO) cells containing CRE/SPAP/HYG reporter elements
# Sequence (P30542 whole entry): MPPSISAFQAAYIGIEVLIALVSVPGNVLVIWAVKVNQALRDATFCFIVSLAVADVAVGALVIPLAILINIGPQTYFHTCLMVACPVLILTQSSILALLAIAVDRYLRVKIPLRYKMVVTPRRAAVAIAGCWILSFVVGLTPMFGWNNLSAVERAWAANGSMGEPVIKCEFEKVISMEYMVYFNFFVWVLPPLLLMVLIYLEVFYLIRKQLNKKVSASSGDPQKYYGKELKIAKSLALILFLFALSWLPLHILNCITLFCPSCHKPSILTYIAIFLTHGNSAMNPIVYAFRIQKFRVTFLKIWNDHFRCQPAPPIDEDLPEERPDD
# protocol.details: Reporter gene assay (CRE/SPAP) in CHO cells, agonist activity, adenosine A1
# Format: cell-based
# assay.setup: CHO cells stably transfected with human adenosine A1 receptor; inhibition of forskolin-stimulated SPAP production; potency relative to NECA=1
quantity: A1 Receptor, Reporter Gene Assay ECR (equipotent concentration ratio relative to NECA=1)

Retrieve A1 Receptor, Reporter Gene Assay ECR (equipotent concentration ratio relative to NECA=1) measured for CC(F)(F)[C@H]1O[C@@H](n2cnc3c(NC4CC5CCC4C5)ncnc32)[C@H](O)[C@@H]1O (some centres unmarked) and print it.
7.14

Retrieve A1 Receptor, Reporter Gene Assay ECR (equipotent concentration ratio relative to NECA=1) measured for CCNC(=O)N1CCC(Nc2nc(Cl)nc3c2ncn3[C@@H]2O[C@H](CF)[C@@H](O)[C@H]2O)CC1 and print it.
51.60

Retrieve A1 Receptor, Reporter Gene Assay ECR (equipotent concentration ratio relative to NECA=1) measured for CC(C)(C)Nc1ncnc2c1ncn2[C@@H]1O[C@H](CF)[C@@H](O)[C@H]1O and print it.
8.17

Retrieve A1 Receptor, Reporter Gene Assay ECR (equipotent concentration ratio relative to NECA=1) measured for CCOC(=O)N1CCC(Nc2nc(Cl)nc3c2ncn3[C@@H]2O[C@H](CF)[C@@H](O)[C@H]2O)CC1 and print it.
3.00

Retrieve A1 Receptor, Reporter Gene Assay ECR (equipotent concentration ratio relative to NECA=1) measured for CC(C)(C)CNc1nc(Cl)nc2c1ncn2[C@@H]1O[C@H](CF)[C@@H](O)[C@H]1O and print it.
7.83
